Where do the numbers come from? From PubChem BioAssay (NCI).

System: A549 NSCLC
Test: NCI tumour cell line growth inhibition, 48 h
experimental_endpoint: TGI

[[record]]
molecule = "CCOC(=O)c1sc2nc(SC)nc3c2c1NC(=O)CN3c1ccc(F)cc1"
result = "50.9 µM"

[[record]]
molecule = "CC(C)[C@@]12C[C@@H](OC(=O)COC(=O)c3ccccc3)[C@@](C)(O1)[C@@H]1CC[C@@H](C)[C@H]1[C@@H]2OC(=O)/C=C/c1ccccc1"
result = "> 100 µM"

[[record]]
molecule = "COC(=O)C1c2cc3c(c(O)c2CCC1(C)O)C(=O)c1c(O)cc2c(c1C3=O)OC1OC2(C)C(O)C(N(C)C)C1O (stereo unspecified)"
result = "0.916 µM"

[[record]]
molecule = "CC(=O)OC(C(=O)[O][Ge]([CH3])([CH3])[CH3])c1ccccc1 (stereo unspecified)"
result = "> 100 µM"

[[record]]
molecule = "O=C1CSC(c2ccccc2)N1c1ccc(-c2ccc(-n3c(-c4ccccc4)nc4ccccc4c3=O)cc2)cc1 (stereo unspecified)"
result = "> 100 µM"

[[record]]
molecule = "Clc1nc(Cl)c2ncn(-c3ccccc3)c2n1"
result = "29.8 µM"

[[record]]
molecule = "O=C(O)c1ccc(CSc2nc3ccccc3[nH]2)cc1"
result = "> 100 µM"

[[record]]
molecule = "NC(=O)c1c[nH]c2ncnc(N)c12"
result = "> 100 µM"

[[record]]
molecule = "CC1CC(C)(O)C2C3(C)CCCC2(COC3=O)C12CCC1(CCOC1=O)O2 (stereo unspecified)"
result = "> 250 µM"

[[record]]
molecule = "O=C1CCC(=O)c2ccccc2N1"
result = "> 100 µM"

[[record]]
molecule = "c1cc2c(cc1C1OCC3C(c4ccc5c(c4)OCO5)OCC13)OCO2 (stereo unspecified)"
result = "> 100 µM"

[[record]]
molecule = "Nc1c(F)c(F)c2c(c1F)N(CCCCCl)c1ccccc1S2"
result = "> 100 µM"

[[record]]
molecule = "COc1cc(-c2nc(N)c(C#N)c3c2CCS(=O)(=O)c2ccc(C)cc2-3)cc(OC)c1OC"
result = "> 100 µM"

[[record]]
molecule = "O=c1[nH]c(=O)n([C@H]2C[C@@H](CO)[C@@H](O)C2)cc1I"
result = "> 100 µM"

[[record]]
molecule = "COc1cc2cc(C(=O)N3CC(CCl)c4ccc(NO)cc43)[nH]c2c(OC)c1OC (stereo unspecified)"
result = "> 100 µM"

[[record]]
molecule = "CC(=O)Oc1ccc2c(=O)c(C(C)=O)coc2c1"
result = "> 100 µM"

[[record]]
molecule = "Cc1c(-c2coc(-c3ccc([N+](=O)[O-])cc3)n2)c(=O)n(-c2ccccc2)n1C"
result = "> 100 µM"

[[record]]
molecule = "CCOc1cc(Cl)c(C(C)NC(=O)c2cccc(OC)c2)cc1OCC (stereo unspecified)"
result = "> 100 µM"

[[record]]
molecule = "CC(C)N(CC(=O)O)CC(=O)O"
result = "> 100 µM"

[[record]]
molecule = "CCCCCCCCCCCCCCCC(=O)NS(=O)(=O)OC[C@H]1O[C@@H](n2cnc3c(N)ncnc32)[C@H](O)[C@@H]1O"
result = "3.82 µM"

[[record]]
molecule = "COc1ccccc1CNCCCN1C(=O)c2ccc3c4c(ccc(c24)C1=O)C(=O)N(CCCNCCCCNCCCN)C3=O"
result = "2.72 µM"


====

System: UACC-62 melanoma
Test: NCI tumour cell line growth inhibition, 48 h
Recorded measurements of TGI, one per entry
experimental_endpoint: TGI (µM)

[[record]]
molecule = "COc1ccc(COCC[C@H](C)OC2OC(CO[Si](C)(C)C(C)(C)C)C(O)C(O)C2O)cc1 (some centres undefined)"
censoring_operator = ">"
result = 100

[[record]]
molecule = "COC(=O)C1c2cc3c(c(O)c2CCC1(C)O)C(=O)c1c(O)cc2c(c1C3=O)OC1OC2(C)C(O)C(N(C)C)C1O (centres undefined)"
censoring_operator = "="
result = 1.91

[[record]]
molecule = "O=C1CSC(c2ccccc2)N1c1ccc(-c2ccc(-n3c(-c4ccccc4)nc4ccccc4c3=O)cc2)cc1 (centres undefined)"
censoring_operator = ">"
result = 100

[[record]]
molecule = "COc1cc2cc(C(=O)N3CC(CCl)c4ccc(NO)cc43)[nH]c2c(OC)c1OC (centres undefined)"
censoring_operator = "="
result = 0.372

[[record]]
molecule = "O=C(O)C12C3CCC(C3)C1(C(=O)O)C1CCC2C1 (centres undefined)"
censoring_operator = ">"
result = 100

[[record]]
molecule = "O=C1C(Cl)C(c2ccc(O)cc2)N1n1cnc2ccccc2c1=O (centres undefined)"
censoring_operator = "="
result = 48.4

[[record]]
molecule = "O=S(=O)(O)c1c(Cl)c(Cl)c(O)c2ncccc12"
censoring_operator = "="
result = 29.7

[[record]]
molecule = "COC(=O)C(=O)C(C(=O)OC)C(=O)C(=O)Nc1cc(Cl)c(C)cc1S(=O)(=O)O (centres undefined)"
censoring_operator = ">"
result = 100

[[record]]
molecule = "CNC(=O)O/N=C1\\N(C)CN(c2ccccc2)C12CCN(CCCC(=O)c1ccc(F)cc1)CC2"
censoring_operator = ">"
result = 100


====

Test system: SF-295 CNS
Assay: NCI tumour cell line growth inhibition, 48 h
experimental_endpoint: TGI

[[record]]
compound = "C[C@@]12CC[C@@H](O)C[C@@H]1CC[C@H]1[C@H]2CC[C@@]2(C)[C@H](c3ccc(=O)oc3)CC[C@@]12O"
result = "0.025 µM"

[[record]]
compound = "O=C1NC(c2ccc3ccccc3c2)Nc2ccccc21 (stereo unspecified)"
result = "> 100 µM"

[[record]]
compound = "CCN1C(=O)/C(=c2\\sc3n(c2=O)C2C(NN=3)N(CC)C(=O)N2CC)c2ccccc21 (stereo unspecified)"
result = "6.64 µM"

[[record]]
compound = "CCOC(=O)/C(=C\\c1c[nH]c2ccccc12)P(=O)(OCC)OCC"
result = "> 100 µM"

[[record]]
compound = "CCCCC/C=C\\C=C\\CCCCCCCCC(=O)OC"
result = "> 100 µM"

[[record]]
compound = "Cc1[nH]c(=O)n2c(C)nnc2c1C(=O)O"
result = "> 100 µM"

[[record]]
compound = "CC(C)N(CC(=O)O)CC(=O)O"
result = "> 100 µM"

[[record]]
compound = "c1cc2c(cc1C1OCC3C(c4ccc5c(c4)OCO5)OCC13)OCO2 (stereo unspecified)"
result = "> 100 µM"

[[record]]
compound = "COc1ccc(C2=C(c3ccccc3)C(=O)N3CCCC3C2)cc1 (stereo unspecified)"
result = "> 100 µM"

[[record]]
compound = "N#CCCC1(CCC#N)S(=O)(=O)OCCOS1(=O)=O"
result = "> 100 µM"

[[record]]
compound = "CCC1=CC(OCc2ccccc2)C(CCN(Cc2ccccc2)C(=O)OCc2ccccc2)C1 (stereo unspecified)"
result = "35.3 µM"


====

Recorded measurements of TGI, one per entry
Test system: OVCAR-4 ovarian
Assay: NCI tumour cell line growth inhibition, 48 h
experimental_endpoint: TGI

[[record]]
compound = "NS(=O)(=O)c1ccc(N=Nc2c(O)[nH]c3ccc(C(=O)NCCCn4ccnc4)cc23)cc1"
result = "> 25 µM"

[[record]]
compound = "O=C(CCN1CCCCC1)c1csc2ccccc12"
result = "> 100 µM"

[[record]]
compound = "CC(C)N(CC(=O)O)CC(=O)O"
result = "> 100 µM"

[[record]]
compound = "C#CN1C(=O)c2c(c(-c3ccccc3)c(-c3ccc(Oc4ccc(-c5c(-c6ccccc6)c6c(c(-c7ccccc7)c5-c5ccccc5)C(=O)N(C#C)C6=O)cc4)cc3)c(-c3ccccc3)c2-c2ccccc2)C1=O"
result = "> 100 µM"

[[record]]
compound = "CCC1(c2ccc(OC)c(OC)c2)CCN(S(=O)(=O)c2ccc(C)cc2)C1 (stereo not drawn)"
result = "> 100 µM"

[[record]]
compound = "CC(=O)OC1C(O)C(C)OC(OC2C(OC(=O)C3CCC4C(C3)OC3(CC(OC(=O)/C=C/c5ccccc5)C(C)CO3)C43CO3)OC(C)C(O)C2OC(C)=O)C1O (stereo not drawn)"
result = "0.051 µM"

[[record]]
compound = "CC1(C)CC[C@]23CC[C@]4(C)[C@H](CC[C@@H]5[C@@]6(C)CCCNC(C)(C)[C@@H]6CC[C@]54C)[C@H]2[C@H]1OC3"
result = "3.12 µM"

[[record]]
compound = "CCOC(=O)C#Cc1cccc(C#CC(=O)OCC)c1"
result = "7.59 µM"


====

Test system: ACHN renal
Assay: NCI tumour cell line growth inhibition, 48 h
Recorded measurements of TGI, one per entry
experimental_endpoint: TGI

[[record]]
compound = "CCOC(=O)C1=C(C)NC2SC(=O)/C(=C\\c3cccc(Cl)c3)N2C1c1ccccc1 (stereo not given)"
result = "> 100 µM"

[[record]]
compound = "COc1cc(/C=C2\\CCC/C(=C\\c3cc(CN4CCCC4)c(O)c(OC)c3)C2=O)cc(CN2CCCC2)c1O"
result = "3.43 µM"

[[record]]
compound = "CC1(C=O)CC(CCc2ccccc2)NC1Cc1ccc(O)cc1 (stereo not given)"
result = "28.6 µM"

[[record]]
compound = "CCCCCC(=O)OC[n+]1ccc2c(C)c3[nH]c4ccc(OC)cc4c3c(C)c2c1"
result = "4.78 µM"

[[record]]
compound = "O=c1[nH]c(=O)n([C@H]2C[C@@H](CO)[C@@H](O)C2)cc1I"
result = "> 100 µM"

[[record]]
compound = "CCOC(=O)/C(C1=NCCN1C)=C(\\O)c1ccccc1"
result = "> 100 µM"

[[record]]
compound = "CC/C(Cl)=N\\OC(=O)Nc1ccc(F)c(Cl)c1"
result = "26.7 µM"

[[record]]
compound = "Cc1ccccc1N(CCC#N)C1=NN(C(=O)CC(=O)Nc2ccc(Cl)cc2)C(c2ccccc2)C1 (stereo not given)"
result = "> 100 µM"

[[record]]
compound = "OC1C2CCCCN2C[C@@H](O)[C@H]1O (stereo not given in full)"
result = "> 100 µM"

[[record]]
compound = "CCOC(=O)c1c(C)n([O-])c2cc(F)c(F)cc2[n+]1=O"
result = "3.23 µM"

